Cited source: patent US7704995B2

Target: Fyn (Homo sapiens)
Sequence (P06241 whole entry): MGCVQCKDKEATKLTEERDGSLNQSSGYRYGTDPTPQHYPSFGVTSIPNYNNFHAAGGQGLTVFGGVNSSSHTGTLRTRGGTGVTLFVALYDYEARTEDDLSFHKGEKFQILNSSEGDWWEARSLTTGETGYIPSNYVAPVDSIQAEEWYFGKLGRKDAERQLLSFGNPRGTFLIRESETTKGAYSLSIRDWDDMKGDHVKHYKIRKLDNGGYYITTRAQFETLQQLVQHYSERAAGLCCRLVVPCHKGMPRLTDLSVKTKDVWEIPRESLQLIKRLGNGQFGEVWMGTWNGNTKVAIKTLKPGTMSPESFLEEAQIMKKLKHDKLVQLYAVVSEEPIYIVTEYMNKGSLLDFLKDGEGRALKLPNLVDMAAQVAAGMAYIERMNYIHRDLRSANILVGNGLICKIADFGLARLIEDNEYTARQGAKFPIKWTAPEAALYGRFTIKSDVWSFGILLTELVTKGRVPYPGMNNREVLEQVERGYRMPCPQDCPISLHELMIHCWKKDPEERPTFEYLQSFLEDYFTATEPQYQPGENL
pIC50: −log10 of the molar value.
Measured parameter: pIC50

Which pIC50 is listed for NC(=O)c1nc(-c2cccc3ccccc23)cnc1N ?
5.00 to 6.00

###

Target: MAP4K3 (Homo sapiens, UniProt Q8IVH8)
Sequence (Q8IVH8 1-894): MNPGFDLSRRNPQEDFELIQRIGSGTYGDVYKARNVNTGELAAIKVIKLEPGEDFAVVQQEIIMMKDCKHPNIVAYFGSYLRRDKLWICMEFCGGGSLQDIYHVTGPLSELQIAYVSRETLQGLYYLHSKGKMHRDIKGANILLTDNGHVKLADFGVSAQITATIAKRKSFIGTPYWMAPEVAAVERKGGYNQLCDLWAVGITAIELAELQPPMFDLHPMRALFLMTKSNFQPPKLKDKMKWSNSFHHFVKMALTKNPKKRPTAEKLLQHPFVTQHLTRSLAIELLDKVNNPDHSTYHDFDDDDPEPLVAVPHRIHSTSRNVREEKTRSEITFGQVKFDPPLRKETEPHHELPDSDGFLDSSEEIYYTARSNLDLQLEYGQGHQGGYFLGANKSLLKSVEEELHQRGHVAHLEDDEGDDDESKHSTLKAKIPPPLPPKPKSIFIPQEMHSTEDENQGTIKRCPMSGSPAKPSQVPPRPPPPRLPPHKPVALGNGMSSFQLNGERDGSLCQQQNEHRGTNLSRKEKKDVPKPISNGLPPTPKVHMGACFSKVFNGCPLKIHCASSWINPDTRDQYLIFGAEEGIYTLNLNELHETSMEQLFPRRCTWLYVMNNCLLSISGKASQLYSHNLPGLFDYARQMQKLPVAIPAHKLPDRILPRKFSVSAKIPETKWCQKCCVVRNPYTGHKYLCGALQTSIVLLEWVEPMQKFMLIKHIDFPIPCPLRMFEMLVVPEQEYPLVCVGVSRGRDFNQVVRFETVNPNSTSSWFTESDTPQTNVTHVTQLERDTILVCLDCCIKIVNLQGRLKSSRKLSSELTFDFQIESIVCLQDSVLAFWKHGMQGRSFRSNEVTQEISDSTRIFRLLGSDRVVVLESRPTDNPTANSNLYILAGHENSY
pIC50: −log10 of the molar value.
Measured parameter: pIC50

Which pIC50 value belongs to NC(=O)c1nc(-c2cccc3ccccc23)cnc1N ?
> 7.30

###

Molecular target: Cdc2 (Homo sapiens)
Sequence (P06493 whole entry): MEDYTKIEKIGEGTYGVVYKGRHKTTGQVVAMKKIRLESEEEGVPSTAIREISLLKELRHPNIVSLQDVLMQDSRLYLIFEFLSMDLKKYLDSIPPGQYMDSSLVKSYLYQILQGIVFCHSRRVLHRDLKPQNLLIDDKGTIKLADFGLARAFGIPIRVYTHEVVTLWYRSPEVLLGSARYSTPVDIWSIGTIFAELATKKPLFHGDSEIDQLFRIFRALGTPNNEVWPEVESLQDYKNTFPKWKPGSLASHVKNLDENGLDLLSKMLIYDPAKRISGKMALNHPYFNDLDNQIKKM
Sequence (P14635 whole entry partner): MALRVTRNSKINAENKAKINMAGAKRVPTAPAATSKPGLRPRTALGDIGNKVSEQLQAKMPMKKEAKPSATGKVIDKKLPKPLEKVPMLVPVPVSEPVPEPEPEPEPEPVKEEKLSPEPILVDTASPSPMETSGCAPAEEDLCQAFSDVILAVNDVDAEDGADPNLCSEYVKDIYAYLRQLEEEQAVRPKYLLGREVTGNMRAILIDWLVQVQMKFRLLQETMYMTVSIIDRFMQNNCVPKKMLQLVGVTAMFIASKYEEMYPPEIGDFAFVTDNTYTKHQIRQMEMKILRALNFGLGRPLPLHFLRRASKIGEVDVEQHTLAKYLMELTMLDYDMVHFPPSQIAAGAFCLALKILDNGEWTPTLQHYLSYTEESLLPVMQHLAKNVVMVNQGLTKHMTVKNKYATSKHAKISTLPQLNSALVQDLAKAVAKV
Measured parameter: IC50

Lookup: IC50 / Cdc2 (Homo sapiens) / NC(=O)c1nc(-c2cccc3ccccc23)cnc1N
≥ 10 µM

###

Biological target: Chk1 (Homo sapiens)
Construct: purchased Upstate Biotechnology
Sequence (O14757 1-476): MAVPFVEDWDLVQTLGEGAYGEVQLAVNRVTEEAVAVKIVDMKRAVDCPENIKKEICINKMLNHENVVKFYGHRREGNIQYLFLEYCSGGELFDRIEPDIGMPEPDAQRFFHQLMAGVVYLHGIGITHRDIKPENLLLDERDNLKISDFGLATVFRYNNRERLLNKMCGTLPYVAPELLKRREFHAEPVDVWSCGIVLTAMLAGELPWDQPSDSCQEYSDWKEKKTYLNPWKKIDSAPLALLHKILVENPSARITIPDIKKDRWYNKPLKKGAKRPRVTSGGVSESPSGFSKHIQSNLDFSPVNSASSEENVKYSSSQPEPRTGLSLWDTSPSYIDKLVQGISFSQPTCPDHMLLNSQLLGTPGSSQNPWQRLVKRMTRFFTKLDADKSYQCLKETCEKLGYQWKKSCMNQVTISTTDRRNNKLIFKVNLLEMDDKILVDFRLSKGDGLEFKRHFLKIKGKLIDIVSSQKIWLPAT
Test: Chk1 kinase assay: incorporation of γ-33P ATP into immobilized myelin basic protein
Format: biochemical
Settings: read-out: Chk1 IC50
Method: Chk1 and Chk2 assays were performed by measuring incorporation of γ-^33P ATP into immobilized myelin basic protein (MBP). […] Each data point was measured in duplicate, and at least two duplicate assays were performed for each individual compound determination. […] The above assay procedure can be used to determine the IC50 for inhibition and/or the inhibition constant Ki. […] The Ki for a compound may be determined from the IC50 based on three assumptions. […]
Each record here notes measured IC50.

Record excerpt, results attached:
compound="CNC(=O)c1nc(-c2cccc(C(=O)NCc3cc(F)cc(C(F)(F)F)c3)c2)cnc1N [Example 172]" obs_value="0.05 to 1 µM"
compound="CNC(=O)c1nc(-c2cccc(CNC(=O)Cc3c[nH]c4ccccc34)c2)cnc1N [Example 336]" obs_value="0.05 to 1 µM"
compound="Nc1ncc(-c2ccccc2)nc1C(=O)NC1CCCCC1 [Example 14]" obs_value="≥ 10 µM"
compound="CNC(=O)c1nc(-c2ccc(OC)c(C(=O)NCc3ccccc3)c2)cnc1N [Example 348]" obs_value="0.05 to 1 µM"
compound="NC(=O)c1nc(-c2ccc(F)cc2F)cnc1N [Example 18]" obs_value="≥ 10 µM"
compound="CNC(=O)c1nc(-c2ccc(OC3CCCCO3)cc2)cnc1N (stereo not drawn) [Example 235]" obs_value="0.05 to 1 µM"
compound="CNC(=O)c1nc(-c2cccc(CNCc3ccc(N)cc3)c2)cnc1N [Example 396]" obs_value="0.05 to 1 µM"
compound="CNC(=O)c1nc(-c2cccc(NC(=O)c3cccc(Oc4ccccc4)c3)c2)cnc1N [Example 156]" obs_value="0.05 to 1 µM"
compound="CNC(=O)c1nc(-c2cccc(CNCc3ccccc3F)c2)cnc1N [Example 399]" obs_value="< 0.05 µM"
compound="CNC(=O)c1nc(-c2cccc(C(=O)NCc3cccc(OC)c3)c2)cnc1N [Example 107]" obs_value="0.05 to 1 µM"

Consider the compound CNC(=O)c1nc(-c2cc(C(=O)NCc3ccccc3)ccc2F)cnc1N [Example 368] and give its measured IC50.
0.05 to 1 µM

Same for CNC(=O)c1nc(-c2cccc(CNC(=O)c3ccc(Cl)cc3)c2)cnc1N [Example 309]
0.05 to 1 µM

What about this compound? CNC(=O)c1nc(-c2cccc(CNC(=O)CSc3ccc(N)cc3)c2)cnc1N [Example 347]
0.05 to 1 µM

Consider next the compound CNC(=O)c1nc(-c2cccc(C(=O)NC3CCCC3)c2)cnc1N [Example 220] in the same way.
1 to 10 µM

Here is the next compound: CNC(=O)c1nc(-c2cccc(CN[C@H]3CCc4ccccc43)c2)cnc1N [Example 418]
< 0.05 µM

Same lookup for CNC(=O)c1nc(-c2cccc(C(=O)NCc3ccc(F)cc3F)c2)cnc1N [Example 226] , please.
0.05 to 1 µM

And CNC(=O)c1nc(-c2cccc(CNC(=O)c3ccc(-c4ccccc4)cc3)c2)cnc1N [Example 332] ?
< 0.05 µM

// next record CNC(=O)c1nc(-c2cccc(CNCC(c3ccccc3)c3ccccc3)c2)cnc1N [Example 393]
0.05 to 1 µM

###

Target: Chk1 (Homo sapiens, UniProt O14757)
Construct: purchased Upstate Biotechnology
Experiment: Chk1 kinase assay: incorporation of γ-33P ATP into immobilized myelin basic protein
Format: biochemical
Details: Table 11; Chk1 only; read-out: Chk1 IC50
pIC50: −log10 of the molar value.
Below is a list of entries, each paired with its recorded pIC50 value.

compound="CNC(=O)c1nc(-c2cccc(CNC3CCc4c(-c5cccs5)cccc43)c2)cnc1N (stereo not shown) [Example 494]" obs_value="> 7.30"
compound="CCOC(=O)[C@H](Cc1ccc(O)cc1)NC(=O)c1nc(-c2cccc(C(=O)NCc3ccccc3)c2)cnc1N [Example 610]" obs_value="≤ 5.00"
compound="CNNC(=O)c1nc(-c2cccc(CN[C@H]3CCc4ccccc43)c2)cnc1N [Example 553]" obs_value="6.00 to 7.30"

In the following, a different compound is considered.
Value lookup for pIC50; key = Nc1ncc(-c2cccc(CN[C@H]3CCc4ccccc43)c2)nc1C(=O)N1CCCC1 [Example 549]
5.00 to 6.00

###

Molecular target: Chk1 (Homo sapiens)
Construct: purchased Upstate Biotechnology
Assay: Chk1 kinase assay: incorporation of γ-33P ATP into immobilized myelin basic protein
Format: biochemical
Conditions: Table 11; Chk1 only; read-out: Chk1 IC50
Measured parameter: IC50

Look over these answered cases.
compound="Cn1nc(-c2nc(-c3cccc(C(=O)N[C@H]4CCc5ccccc54)c3)cnc2N)nc1C1CCCN(C(=O)OCc2ccccc2)C1 (some centres unmarked)" measured_parameter=IC50 obs_value="≥ 10000 nM"
compound="Cn1nc(-c2nc(-c3cccc(C(=O)N[C@H]4CCc5ccccc54)c3)cnc2N)nc1C1CCCNC1 (some centres unmarked)" measured_parameter=IC50 obs_value="50 to 1000 nM"
compound=Nc1ncc(-c2cccc(C(=O)N3CCc4ccccc4C3)c2)nc1C(=O)N[C@H]1CCNC1 measured_parameter=IC50 obs_value="50 to 1000 nM"
compound=CN1CCN(NC(=N)c2nc(-c3cccc(C(=O)NCc4ccccc4)c3)cnc2N)CC1 measured_parameter=IC50 obs_value="≥ 10000 nM"
compound="Nc1ncc(-c2cccc(C(=O)NC3CCOc4ccccc43)c2)nc1C(=O)N[C@H]1CCNC1 (some centres unmarked)" measured_parameter=IC50 obs_value="50 to 1000 nM"

What does the record list as IC50 for Nc1ncc(-c2cccc(C(=O)NCc3ccccc3)c2)nc1C(=O)NCCCNC(=O)c1ccncc1 ?
1000 to 10000 nM

Also check CNC(=O)c1nc(-c2cccc(CN[C@H]3C[C@H]3c3ccccc3)c2)cnc1N
50 to 1000 nM

Item: CCN1CC[C@H](NC(=O)c2nc(-c3cccc(C(=O)NCc4ccccc4)c3)cnc2N)C1
50 to 1000 nM
